As shown below, each of these compounds has a reported percentage inhibition of SRPK1 value.
# MEASURED_TARGET: SRPK1 (Homo sapiens (Human))
# EXPERIMENTAL_PROTOCOL: SRPK1 kinase selectivity assay
# Type: biochemical
# STUDY_CONDITIONS: 1 μM inhibitor concentration
Response body: numeric value in percentage, unit text excluded.

c1cc2[nH]nc3c2c(n1)N(C1CCOCC1)CCC3 = 0
CC(C)n1ncc2c1CN(C1CCN(C)CC1)c1nccc3[nH]nc-2c13 = 0
c1cc2[nH]nc3c2c(n1)N(C1CCCC1)CCC3 = 0
CN1CCC(N2Cc3ccccc3-c3n[nH]c4ccnc2c34)CC1 = 0

# ---- query compound ----
Inquiry: Output measured percentage inhibition of SRPK1 for this item: c1cc2[nH]nc3c2c(n1)N(C1CCC1)CCC3
Reply text: 0

* * *

As shown below, each of these compounds has a reported percentage inhibition of TTK value.
# MEASURED_TARGET: UniProtKB P33981
# EXPERIMENTAL_PROTOCOL: TTK kinase selectivity assay
# Format: biochemical
# STUDY_CONDITIONS: 1 μM inhibitor concentration
Response body: numeric value in percentage, unit text excluded.

Take a look at these entries with their results.
c1cc2[nH]nc3c2c(n1)N(C1CCC1)CCC3 = 0
c1cc2[nH]nc3c2c(n1)N(C1CCCC1)CCC3 = 0
CC(C)n1ncc2c1CN(C1CCN(C)CC1)c1nccc3[nH]nc-2c13 = 2
CN1CCC(N2Cc3ccccc3-c3n[nH]c4ccnc2c34)CC1 = 35

Inquiry: Report its percentage inhibition of TTK with UniProtKB P33981 as the test system: c1cc2[nH]nc3c2c(n1)N(C1CCOCC1)CCC3
Reply text: 2

* * *

# MEASURED_TARGET: MINK1 (Homo sapiens (Human), UniProt Q8N4C8)
# Sequence (Q8N4C8 whole entry, species assumed): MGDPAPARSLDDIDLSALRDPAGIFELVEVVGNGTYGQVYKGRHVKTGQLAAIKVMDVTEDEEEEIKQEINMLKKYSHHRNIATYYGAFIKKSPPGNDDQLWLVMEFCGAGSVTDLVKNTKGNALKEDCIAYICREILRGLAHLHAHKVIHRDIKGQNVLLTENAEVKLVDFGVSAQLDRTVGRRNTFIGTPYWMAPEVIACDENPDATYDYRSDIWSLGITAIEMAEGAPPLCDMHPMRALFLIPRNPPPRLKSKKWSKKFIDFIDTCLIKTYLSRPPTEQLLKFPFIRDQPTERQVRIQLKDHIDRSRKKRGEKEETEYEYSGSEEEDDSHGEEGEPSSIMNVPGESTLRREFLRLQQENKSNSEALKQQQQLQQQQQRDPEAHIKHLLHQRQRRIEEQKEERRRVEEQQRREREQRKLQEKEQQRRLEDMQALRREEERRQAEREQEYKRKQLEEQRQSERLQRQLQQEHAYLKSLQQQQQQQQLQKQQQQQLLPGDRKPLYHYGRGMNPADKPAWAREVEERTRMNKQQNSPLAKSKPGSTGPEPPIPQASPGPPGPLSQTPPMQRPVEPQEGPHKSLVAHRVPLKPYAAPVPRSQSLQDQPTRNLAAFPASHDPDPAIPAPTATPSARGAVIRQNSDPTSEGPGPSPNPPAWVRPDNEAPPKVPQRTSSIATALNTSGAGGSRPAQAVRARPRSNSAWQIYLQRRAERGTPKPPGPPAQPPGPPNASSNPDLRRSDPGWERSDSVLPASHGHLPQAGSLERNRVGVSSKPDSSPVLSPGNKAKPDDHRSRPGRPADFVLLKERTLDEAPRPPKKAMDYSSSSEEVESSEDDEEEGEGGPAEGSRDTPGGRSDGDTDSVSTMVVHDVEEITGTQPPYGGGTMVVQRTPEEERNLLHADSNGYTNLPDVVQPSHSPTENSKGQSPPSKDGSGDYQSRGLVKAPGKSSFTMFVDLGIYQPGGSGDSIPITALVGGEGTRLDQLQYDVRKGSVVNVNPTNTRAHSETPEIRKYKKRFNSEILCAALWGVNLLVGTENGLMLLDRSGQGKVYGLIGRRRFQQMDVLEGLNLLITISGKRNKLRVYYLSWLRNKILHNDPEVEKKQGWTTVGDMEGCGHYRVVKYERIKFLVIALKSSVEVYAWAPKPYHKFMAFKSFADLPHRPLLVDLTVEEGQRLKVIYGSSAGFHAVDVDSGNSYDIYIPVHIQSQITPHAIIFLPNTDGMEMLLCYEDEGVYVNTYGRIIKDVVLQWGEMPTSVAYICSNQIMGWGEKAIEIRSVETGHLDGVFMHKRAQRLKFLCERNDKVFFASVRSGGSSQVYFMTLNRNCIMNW
# EXPERIMENTAL_PROTOCOL: MINK1 kinase selectivity assay
# Format: biochemical
# STUDY_CONDITIONS: 1 μM inhibitor concentration
As shown below, each of these molecules has a reported percentage inhibition of MINK1 value.
Response body: numeric value in percentage, unit text excluded.

Inquiry: Output measured percentage inhibition of MINK1 for this item: c1cc2[nH]nc3c2c(n1)N(C1CCOCC1)CCC3
Reply text: 0

* * *

# MEASURED_TARGET: GSK3b (Homo sapiens (Human), UniProt P49841)
# Sequence (P49841 whole entry, species assumed): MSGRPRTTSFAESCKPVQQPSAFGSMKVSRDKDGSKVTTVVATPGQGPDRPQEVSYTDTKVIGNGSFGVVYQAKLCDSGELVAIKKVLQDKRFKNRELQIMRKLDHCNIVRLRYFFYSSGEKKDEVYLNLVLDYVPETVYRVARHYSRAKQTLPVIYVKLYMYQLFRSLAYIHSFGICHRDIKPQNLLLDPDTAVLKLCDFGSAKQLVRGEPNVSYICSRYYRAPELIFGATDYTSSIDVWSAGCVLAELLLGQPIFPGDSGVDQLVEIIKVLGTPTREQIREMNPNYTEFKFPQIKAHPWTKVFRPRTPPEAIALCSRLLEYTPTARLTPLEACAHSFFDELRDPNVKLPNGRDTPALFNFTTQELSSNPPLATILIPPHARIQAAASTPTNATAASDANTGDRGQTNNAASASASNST
# EXPERIMENTAL_PROTOCOL: GSK3b kinase selectivity assay
# Assay type: biochemical
# STUDY_CONDITIONS: 1 μM inhibitor concentration
As shown below, each of these compounds has a reported percentage inhibition of GSK3b value.
Answer format reminder: number followed by unit.

Take a look at these entries with their results.
c1cc2[nH]nc3c2c(n1)N(C1CCC1)CCC3 = 16 percentage
c1cc2[nH]nc3c2c(n1)N(C1CCOCC1)CCC3 = 0 percentage
c1cc2[nH]nc3c2c(n1)N(C1CCCC1)CCC3 = 0 percentage
CN1CCC(N2Cc3ccccc3-c3n[nH]c4ccnc2c34)CC1 = 0 percentage

# ---- query compound ----
Inquiry: Output measured percentage inhibition of GSK3b for this item: CC(C)n1ncc2c1CN(C1CCN(C)CC1)c1nccc3[nH]nc-2c13
Reply text: 0 percentage

* * *

# MEASURED_TARGET: ULK1 (Homo sapiens (Human))
# EXPERIMENTAL_PROTOCOL: ULK1 kinase selectivity assay
# Format: biochemical
# STUDY_CONDITIONS: 1 μM inhibitor concentration
MEASURED_PARAMETER: percentage inhibition of ULK1 (percentage)
Response body: numeric value in percentage, unit text excluded.

Take a look at these entries with their results.
c1cc2[nH]nc3c2c(n1)N(C1CCCC1)CCC3 [Example 23] = 0
CN1CCC(N2Cc3ccccc3-c3n[nH]c4ccnc2c34)CC1 [Example 55] = 20
CC(C)n1ncc2c1CN(C1CCN(C)CC1)c1nccc3[nH]nc-2c13 [Example 68] = 30
c1cc2[nH]nc3c2c(n1)N(C1CCOCC1)CCC3 [Example 29] = 5

# ---- query molecule ----
Inquiry: Output measured percentage inhibition of ULK1 for this item: c1cc2[nH]nc3c2c(n1)N(C1CCC1)CCC3 [Example 22]
Reply text: 14

* * *

# Tested on: AMPK(hum)
# EXPERIMENTAL_PROTOCOL: AMPK kinase selectivity assay
# Type: biochemical, human
# STUDY_CONDITIONS: 1 μM inhibitor concentration
As shown below, each of these molecules has a reported percentage inhibition of AMPK(hum) value.
Answer format reminder: number followed by unit.

c1cc2[nH]nc3c2c(n1)N(C1CCC1)CCC3 = 16 percentage
c1cc2[nH]nc3c2c(n1)N(C1CCOCC1)CCC3 = 6 percentage
CC(C)n1ncc2c1CN(C1CCN(C)CC1)c1nccc3[nH]nc-2c13 = 32 percentage

Inquiry: Output measured percentage inhibition of AMPK(hum) for this item: CN1CCC(N2Cc3ccccc3-c3n[nH]c4ccnc2c34)CC1
Reply text: 64 percentage

* * *

As shown below, each of these molecules has a reported pIC50 value.
# MEASURED_TARGET: LRRK2 G2019S (Homo sapiens (Human), UniProt Q5S007, G2019S)
# Sequence (Q5S007 970-2527 G2019S): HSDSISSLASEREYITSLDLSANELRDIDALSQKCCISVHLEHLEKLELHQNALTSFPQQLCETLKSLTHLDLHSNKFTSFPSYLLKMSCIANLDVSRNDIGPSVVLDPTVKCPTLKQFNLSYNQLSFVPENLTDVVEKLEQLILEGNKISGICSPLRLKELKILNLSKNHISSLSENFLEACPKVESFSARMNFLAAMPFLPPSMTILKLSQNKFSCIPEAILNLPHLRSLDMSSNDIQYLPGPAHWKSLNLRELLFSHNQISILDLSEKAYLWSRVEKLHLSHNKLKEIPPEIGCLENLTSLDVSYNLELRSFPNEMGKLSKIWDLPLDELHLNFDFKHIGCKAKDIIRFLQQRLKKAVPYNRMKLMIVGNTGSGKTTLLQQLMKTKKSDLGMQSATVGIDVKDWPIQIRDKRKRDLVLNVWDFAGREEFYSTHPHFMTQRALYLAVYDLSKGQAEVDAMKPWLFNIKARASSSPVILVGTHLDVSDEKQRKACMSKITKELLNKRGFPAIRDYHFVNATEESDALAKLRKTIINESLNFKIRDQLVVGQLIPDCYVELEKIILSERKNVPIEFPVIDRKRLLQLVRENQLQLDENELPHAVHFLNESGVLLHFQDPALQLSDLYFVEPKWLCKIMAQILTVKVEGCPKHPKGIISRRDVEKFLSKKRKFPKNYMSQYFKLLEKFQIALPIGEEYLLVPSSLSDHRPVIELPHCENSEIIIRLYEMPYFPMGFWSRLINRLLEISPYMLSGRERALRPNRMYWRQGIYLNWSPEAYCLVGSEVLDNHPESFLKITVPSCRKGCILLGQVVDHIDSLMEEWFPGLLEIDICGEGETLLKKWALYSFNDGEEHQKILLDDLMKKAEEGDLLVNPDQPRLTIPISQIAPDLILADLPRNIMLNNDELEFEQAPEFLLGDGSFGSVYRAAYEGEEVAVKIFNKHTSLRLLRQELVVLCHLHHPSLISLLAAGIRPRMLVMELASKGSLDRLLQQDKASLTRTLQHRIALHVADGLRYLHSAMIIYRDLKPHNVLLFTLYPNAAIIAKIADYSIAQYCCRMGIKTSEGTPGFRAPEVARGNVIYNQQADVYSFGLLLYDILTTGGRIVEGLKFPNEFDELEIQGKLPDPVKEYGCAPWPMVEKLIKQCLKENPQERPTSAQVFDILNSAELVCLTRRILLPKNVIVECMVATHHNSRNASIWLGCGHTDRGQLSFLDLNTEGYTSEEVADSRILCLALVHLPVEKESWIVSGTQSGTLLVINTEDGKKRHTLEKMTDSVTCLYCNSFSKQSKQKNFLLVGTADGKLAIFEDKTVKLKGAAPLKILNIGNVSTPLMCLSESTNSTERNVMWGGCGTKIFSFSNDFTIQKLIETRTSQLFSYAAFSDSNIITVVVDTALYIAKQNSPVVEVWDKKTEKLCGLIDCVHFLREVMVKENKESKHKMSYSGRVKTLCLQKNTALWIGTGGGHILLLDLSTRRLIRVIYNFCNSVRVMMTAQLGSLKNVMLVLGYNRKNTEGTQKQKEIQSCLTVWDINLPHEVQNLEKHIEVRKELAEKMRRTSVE
# EXPERIMENTAL_PROTOCOL: Adapta Kinase Assay (LRRK2_IC50 assay)
# STUDY_CONDITIONS: inhibition of LRRK2 G2019S
When answering, recall that pIC50 equals minus log10 of the concentration in mol/L, and write that number alone.

CC(C)N1CCC(N2Cc3nn(C(C)C)cc3-c3n[nH]c4ccnc2c34)CC1 = 7.51
CCn1cc2c(n1)CN(C1CCOCC1)c1nccc3[nH]nc-2c13 = 7.82
CCn1cc2c(n1)CN(C1CCN(C(C)C)CC1)c1nccc3[nH]nc-2c13 = 7.54
CN1CCN(C2CCOCC2)c2nccc3[nH]nc1c23 = 6.77
Cn1ncc2c1C(=O)N(C1CCOCC1)c1nccc3[nH]nc-2c13 = 8.15

Inquiry: Output measured pIC50 for this item: Cn1cc2c(n1)C(=O)N(C1CCOCC1)c1nccc3[nH]nc-2c13
Reply text: 7.59

Inquiry: Output measured pIC50 for this item: CC(C)N1CCC(N2Cc3ccccc3-c3n[nH]c4ccnc2c34)CC1
Reply text: 7.24

Inquiry: Output measured pIC50 for this item: CC(C)N1CCC(N2C(=O)c3ccccc3-c3n[nH]c4ccnc2c34)CC1
Reply text: 7.51

Inquiry: Output measured pIC50 for this item: O=C1c2n[nH]cc2-c2n[nH]c3ccnc(c23)N1C1CCOCC1
Reply text: 8.40

* * *

As shown below, each of these compounds has a reported percentage inhibition of HIPK2 value.
# MEASURED_TARGET: HIPK2 (Homo sapiens (Human))
# Sequence (Q9H2X6 whole entry, species assumed): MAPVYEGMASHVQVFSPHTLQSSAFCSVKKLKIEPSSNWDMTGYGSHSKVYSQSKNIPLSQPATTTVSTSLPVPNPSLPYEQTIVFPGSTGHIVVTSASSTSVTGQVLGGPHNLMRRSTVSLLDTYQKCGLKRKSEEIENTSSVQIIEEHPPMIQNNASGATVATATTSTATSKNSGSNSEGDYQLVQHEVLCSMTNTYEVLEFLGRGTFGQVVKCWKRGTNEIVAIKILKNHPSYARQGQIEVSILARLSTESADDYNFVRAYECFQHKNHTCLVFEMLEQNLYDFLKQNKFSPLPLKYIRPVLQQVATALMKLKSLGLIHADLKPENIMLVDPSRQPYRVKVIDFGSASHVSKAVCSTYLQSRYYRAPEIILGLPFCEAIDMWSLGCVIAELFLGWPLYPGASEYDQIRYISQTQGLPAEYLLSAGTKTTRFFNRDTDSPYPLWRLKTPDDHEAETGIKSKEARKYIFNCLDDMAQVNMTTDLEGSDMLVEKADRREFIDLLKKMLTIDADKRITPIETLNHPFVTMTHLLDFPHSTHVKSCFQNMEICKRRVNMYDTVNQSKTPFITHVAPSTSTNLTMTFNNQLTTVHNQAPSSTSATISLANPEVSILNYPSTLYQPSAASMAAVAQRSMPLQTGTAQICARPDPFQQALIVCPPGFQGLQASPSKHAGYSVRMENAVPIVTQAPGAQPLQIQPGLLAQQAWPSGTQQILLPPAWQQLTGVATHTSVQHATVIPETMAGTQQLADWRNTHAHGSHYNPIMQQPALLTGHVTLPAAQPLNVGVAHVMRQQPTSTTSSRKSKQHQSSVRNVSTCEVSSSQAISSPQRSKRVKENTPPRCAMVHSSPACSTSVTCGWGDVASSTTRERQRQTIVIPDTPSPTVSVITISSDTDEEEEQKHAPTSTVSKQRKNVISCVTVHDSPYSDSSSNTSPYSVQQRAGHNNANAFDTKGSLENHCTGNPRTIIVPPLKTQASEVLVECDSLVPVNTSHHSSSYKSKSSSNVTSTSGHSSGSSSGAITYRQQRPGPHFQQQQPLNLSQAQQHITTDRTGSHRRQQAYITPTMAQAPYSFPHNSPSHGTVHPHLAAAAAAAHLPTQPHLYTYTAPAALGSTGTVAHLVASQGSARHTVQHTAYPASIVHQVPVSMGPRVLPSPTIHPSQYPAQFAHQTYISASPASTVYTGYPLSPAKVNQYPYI
# EXPERIMENTAL_PROTOCOL: HIPK2 kinase selectivity assay
# Format: biochemical
# STUDY_CONDITIONS: 1 μM inhibitor concentration
Response body: numeric value in percentage, unit text excluded.

Take a look at these entries with their results.
CN1CCC(N2Cc3ccccc3-c3n[nH]c4ccnc2c34)CC1 [Example 55] = 1
c1cc2[nH]nc3c2c(n1)N(C1CCC1)CCC3 [Example 22] = 11

Inquiry: Output measured percentage inhibition of HIPK2 for this item: CC(C)n1ncc2c1CN(C1CCN(C)CC1)c1nccc3[nH]nc-2c13 [Example 68]
Reply text: 0

Inquiry: Output measured percentage inhibition of HIPK2 for this item: c1cc2[nH]nc3c2c(n1)N(C1CCCC1)CCC3 [Example 23]
Reply text: 3

Inquiry: Output measured percentage inhibition of HIPK2 for this item: c1cc2[nH]nc3c2c(n1)N(C1CCOCC1)CCC3 [Example 29]
Reply text: 3

* * *

# MEASURED_TARGET: CDK2-CyclinA (Homo sapiens (Human), UniProt P24941)
# EXPERIMENTAL_PROTOCOL: CDK2-CyclinA kinase selectivity assay
# Format: biochemical
# STUDY_CONDITIONS: 1 μM inhibitor concentration
As shown below, each of these compounds has a reported percentage inhibition of CDK2-CyclinA value.
Response body: numeric value in percentage, unit text excluded.

Take a look at these entries with their results.
c1cc2[nH]nc3c2c(n1)N(C1CCCC1)CCC3 = 0
CN1CCC(N2Cc3ccccc3-c3n[nH]c4ccnc2c34)CC1 = 10
CC(C)n1ncc2c1CN(C1CCN(C)CC1)c1nccc3[nH]nc-2c13 = 0
c1cc2[nH]nc3c2c(n1)N(C1CCOCC1)CCC3 = 30

# ---- query compound ----
Inquiry: Output measured percentage inhibition of CDK2-CyclinA for this item: c1cc2[nH]nc3c2c(n1)N(C1CCC1)CCC3
Reply text: 16

* * *

# MEASURED_TARGET: ERK1 (Homo sapiens (Human))
# Sequence (P27361 whole entry, species assumed): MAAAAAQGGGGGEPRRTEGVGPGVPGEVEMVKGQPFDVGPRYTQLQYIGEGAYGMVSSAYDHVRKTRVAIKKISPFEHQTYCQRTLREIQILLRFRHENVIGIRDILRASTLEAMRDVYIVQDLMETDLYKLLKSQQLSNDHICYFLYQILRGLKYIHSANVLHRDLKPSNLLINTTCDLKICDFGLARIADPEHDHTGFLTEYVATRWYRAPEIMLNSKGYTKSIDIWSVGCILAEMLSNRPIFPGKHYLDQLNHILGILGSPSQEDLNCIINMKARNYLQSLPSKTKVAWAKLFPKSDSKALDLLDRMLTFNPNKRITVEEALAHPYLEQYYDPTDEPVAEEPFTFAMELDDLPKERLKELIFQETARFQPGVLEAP
# EXPERIMENTAL_PROTOCOL: ERK1 kinase selectivity assay
# Type: biochemical
# STUDY_CONDITIONS: 1 μM inhibitor concentration
MEASURED_PARAMETER: percentage inhibition of ERK1 (percentage)
Response body: numeric value in percentage, unit text excluded.

CN1CCC(N2Cc3ccccc3-c3n[nH]c4ccnc2c34)CC1 [Example 55] = 4
c1cc2[nH]nc3c2c(n1)N(C1CCOCC1)CCC3 [Example 29] = 0
c1cc2[nH]nc3c2c(n1)N(C1CCC1)CCC3 [Example 22] = 0
CC(C)n1ncc2c1CN(C1CCN(C)CC1)c1nccc3[nH]nc-2c13 [Example 68] = 11

Inquiry: Output measured percentage inhibition of ERK1 for this item: c1cc2[nH]nc3c2c(n1)N(C1CCCC1)CCC3 [Example 23]
Reply text: 0
